# System: TK-10 renal
# MEASUREMENT PROTOCOL: NCI tumour cell line growth inhibition, 48 h
// reported TGI per item

[[record]]
substance_smiles = "CN1CCN(Cc2ccc3c(NNC(=O)c4ccccc4)nc4cc(F)ccc4n23)CC1"
measured_on = "TK-10 renal"
readout_type = "TGI"
recorded_result = "> 92.5 µM"

[[record]]
substance_smiles = "CC(=O)c1cc(C(=O)c2ccc3c(c2)Sc2ccccc2N3)c2c(C)cccn12"
measured_on = "TK-10 renal"
readout_type = "TGI"
recorded_result = "> 100 µM"

[[record]]
substance_smiles = "O=C(Nc1cc(Oc2cc(F)c(NC(=O)C3(C(=O)Nc4ccc(F)cc4)CC3)cc2F)ccn1)C1CC1"
measured_on = "TK-10 renal"
readout_type = "TGI"
recorded_result = "> 100 µM"


Task item: Please look at this molecule and report its TGI: `NC(=S)N=Nc1c(O)c2ccccc2c2ccccc12`
Reply: > 94.1 µM

###

# System: TK-10 renal
# MEASUREMENT PROTOCOL: NCI tumour cell line growth inhibition, 48 h
READOUT TYPE: TGI

[[record]]
compound = "CN(C)c1ccc(/C=c2/c3ccccc3n3c2c2cc(F)ccc2[n+]3C)cc1"
readout_type = "TGI"
recorded_result = "14.7 µM"

[[record]]
compound = "NC(=O)c1c(NC=O)ncn1C1OCC(O)C(O)C1O (stereo not given)"
readout_type = "TGI"
recorded_result = "> 100 µM"

[[record]]
compound = "COc1cc(-n2ccnc2)cc(OC)c1OC"
readout_type = "TGI"
recorded_result = "> 100 µM"

[[record]]
compound = "CCCN(CCC)c1c([N+](=O)[O-])cc(C(=O)N(CCO)CCO)cc1[N+](=O)[O-]"
readout_type = "TGI"
recorded_result = "> 100 µM"

[[record]]
compound = "Nc1nc(N)c2cc(Sc3cccc(C(F)(F)F)c3)ccc2n1"
readout_type = "TGI"
recorded_result = "14 µM"

[[record]]
compound = "CCn1c(=O)c2nc(SC)sc2n(-c2ccccc2)c1=O"
readout_type = "TGI"
recorded_result = "> 100 µM"


Task item: Please look at this compound and report its TGI: O=C(/C=C/C12c3ccccc3C(c3ccccc31)C1C(=O)NC(=O)C12)c1ccc(Cl)cc1 (stereo not given)
Reply: 3.52 µM

Task item: Please look at this compound and report its TGI: OC12c3ccccc3C3CCC4(OCCO4)C3C1c1ccccc12 (stereo not given)
Reply: > 100 µM

Task item: Please look at this compound and report its TGI: `COc1ccc(Cn2cc3c(c2-c2ccccc2)CCc2cnoc2-3)cc1N`
Reply: > 100 µM

Task item: Please look at this compound and report its TGI: `Cc1c(C(N)=O)sc2c1c(=O)n(Cc1ccccc1)c1nnc(-c3ccc(Br)cc3)n21`
Reply: 16.3 µM

Task item: Please look at this compound and report its TGI: COc1cccc2c1C(=O)OC2c1cccc2ccccc12 (stereo not given)
Reply: > 100 µM

Task item: Please look at this compound and report its TGI: `Cc1cc(Nc2cc(N3CCN(C)CC3)nc(Sc3ccc(NC(=O)C4CC4)cc3)n2)n[nH]1`
Reply: > 10 µM

Task item: Please look at this compound and report its TGI: CCOC(=O)C(C)c1nc2ccc(C(F)(F)F)cc2[nH]c1=O (stereo not given)
Reply: > 100 µM

Task item: Please look at this compound and report its TGI: `NCCCCCCNCc1cccc2ccccc12`
Reply: > 100 µM

Task item: Please look at this compound and report its TGI: `CC1=C[C@H]2C[C@H](C)[C@H]3CC[C@H](C)[C@]4(C1)C(=O)C(O)=C(C)C(=O)[C@@]324`
Reply: > 100 µM

###

# Tested on: HCC-2998 colon
# MEASUREMENT PROTOCOL: NCI tumour cell line growth inhibition, 48 h
READOUT TYPE: TGI

Task item: Please look at this compound and report its TGI: `O=C1CCCCC/C1=C\c1ccccc1`
Reply: > 100 µM

Task item: Please look at this compound and report its TGI: CCOC(=O)c1cc(C2CCN(c3ccccc3)C2=O)c(C(=O)/C=C(/C)N)[nH]1 (stereo unspecified)
Reply: > 100 µM

Task item: Please look at this compound and report its TGI: COc1ccc(N2C(=O)C3c4[nH]c5ccc(F)cc5c4C4CCC(C(C)(C)C)CC4C3C2=O)cc1 (stereo unspecified)
Reply: > 10 µM

###

# Test system: RPMI-8226 leukemia
# MEASUREMENT PROTOCOL: NCI tumour cell line growth inhibition, 48 h
READOUT TYPE: TGI

Reference set, count: 2
[[record]]
compound = "Cc1ccc2oc3c(c(Br)c(Br)n3C)c(=O)c2c1"
recorded_result = "> 100 µM"

[[record]]
compound = "COc1c2c(cc3c1C1(O)Cc4ccc5c(c4C[N+]1(C)CC3)OCO5)OCO2 (stereo not drawn)"
recorded_result = "> 100 µM"


--- query ---
Task item: Please look at this compound and report its TGI: `Cc1cccc(NC(=O)/C=C/c2ccc([N+](=O)[O-])cc2)c1`
Reply: > 68.8 µM

###

# Test system: SK-MEL-2 melanoma
# MEASUREMENT PROTOCOL: NCI tumour cell line growth inhibition, 48 h
READOUT TYPE: TGI

Reference set, count: 2
[[record]]
molecule = "CNS(=O)(=O)OCC1OC(n2cnc3c(N)ncnc32)C(O)C1O (stereo not drawn)"
readout_type = "TGI"
recorded_result = "> 100 µM"

[[record]]
molecule = "COc1ccc(Nc2nc3cc(N)cc(N)c3nc2-c2ccccc2)cc1OC"
readout_type = "TGI"
recorded_result = "> 100 µM"


--- query ---
Task item: Please look at this molecule and report its TGI: `CN(C)c1ccc(C(c2ccc(Cl)cc2)c2ccc(N(C)C)cc2)cc1`
Reply: > 100 µM

###

// reported TGI per item
# Test system: NCI-H226 lung
# MEASUREMENT PROTOCOL: NCI tumour cell line growth inhibition, 48 h

Task item: Please look at this molecule and report its TGI: `CCOC(=O)c1cnn2c3ccccc3n(S(=O)(=O)c3ccc(OC)cc3)c12`
Reply: > 100 µM

Task item: Please look at this molecule and report its TGI: `CC(=O)C(=[N+]=[N-])C(=O)N(C)CCC#N`
Reply: > 10 µM

Task item: Please look at this molecule and report its TGI: `COc1cc(-n2ccnc2)cc(OC)c1OC`
Reply: > 100 µM

Task item: Please look at this molecule and report its TGI: `NC(=Nc1ccc(N)cc1)C(N)=Nc1ccc(N)cc1`
Reply: > 100 µM

Task item: Please look at this molecule and report its TGI: `Clc1ccccc1C(Nc1ncccn1)Nc1ncccn1`
Reply: > 100 µM

###

# Test system: IGROV1 ovarian
# MEASUREMENT PROTOCOL: NCI tumour cell line growth inhibition, 48 h
READOUT TYPE: GI50

Task item: Please look at this compound and report its GI50: `O=C(NCc1ccco1)c1cccc(NC2=C(Cl)C(=O)N(Cc3ccccc3)C2=O)c1`
Reply: 2440 nM

Task item: Please look at this compound and report its GI50: `O=C(NCCNc1nccc(-c2c(-c3cccc(O)c3)nc3sccn23)n1)c1ccccc1`
Reply: 3610 nM

Task item: Please look at this compound and report its GI50: `NC(=S)N=Nc1c(O)c2ccccc2c2ccccc12`
Reply: 27200 nM

Task item: Please look at this compound and report its GI50: `C#COc1cccc(Nc2ncnc3cc(NC(=O)[C@H](C)Cl)ccc23)c1`
Reply: 2350 nM

Task item: Please look at this compound and report its GI50: `CCOC(=O)c1ccc2c(c1)[n+](=O)c(C(C)=O)c(C(F)(F)F)n2[O-]`
Reply: 1460 nM

###

# Test system: MDA-MB-231 breast
# MEASUREMENT PROTOCOL: NCI tumour cell line growth inhibition, 48 h
// reported TGI per item
// note: answer is a bare numeric in µM

Reference set, count: 2
[[record]]
molecule = "O=C1c2ccccc2C(=O)c2c(NCC3CO3)ccc(NCC3CO3)c21 (stereo not given)"
recorded_result = 14.8

[[record]]
molecule = "c1ccc2c(c1)ccn1ccc3c4ccccc4nc-3c21"
recorded_result = 2.2


Task item: Please look at this molecule and report its TGI: COc1ccc(C2C=C(c3ccc(Cl)cc3)N=C3SC=C(C)N32)c(Br)c1 (stereo not given)
Reply: 22.1

###

# Test system: NCI-H226 lung
# MEASUREMENT PROTOCOL: NCI tumour cell line growth inhibition, 48 h
// reported TGI per item

[[record]]
compound = "CNS(=O)(=O)OCC1OC(n2cnc3c(N)ncnc32)C(O)C1O (stereo not drawn)"
measured_on = "NCI-H226 lung"
recorded_result = "> 100 µM"


Task item: Please look at this compound and report its TGI: `Cc1cn(-c2ccc(S(C)(=O)=O)cc2)c(-c2ccc(Cl)cc2)n1`
Reply: > 100 µM

Task item: Please look at this compound and report its TGI: `O=C(Nc1cccc2ccccc12)c1ccccc1`
Reply: > 100 µM

Task item: Please look at this compound and report its TGI: `Cc1cccc(NC(=O)/C=C/c2ccc([N+](=O)[O-])cc2)c1`
Reply: > 72 µM

Task item: Please look at this compound and report its TGI: `CCS(=O)(=O)c1ccc(OC)c(Nc2ncc(-c3ccccc3Cl)o2)c1`
Reply: > 25 µM

Task item: Please look at this compound and report its TGI: `CC1=C[C@H]2C[C@H](C)[C@H]3CC[C@H](C)[C@]4(C1)C(=O)C(O)=C(C)C(=O)[C@@]324`
Reply: > 100 µM

Task item: Please look at this compound and report its TGI: `CN(/N=C/c1cccc2cccnc12)c1c([N+](=O)[O-])cc([N+](=O)[O-])cc1[N+](=O)[O-]`
Reply: > 100 µM

Task item: Please look at this compound and report its TGI: `CCOC(=O)C(O)(C(=O)OCC)c1cc(C(C)(C)C)c(O)c(C(C)(C)C)c1`
Reply: > 100 µM

Task item: Please look at this compound and report its TGI: `Cc1c(C(N)=O)sc2c1c(=O)n(Cc1ccccc1)c1nnc(-c3ccc(Br)cc3)n21`
Reply: 9.82 µM

Task item: Please look at this compound and report its TGI: `CC(=O)c1cc(C(=O)c2ccc3c(c2)Sc2ccccc2N3)c2c(C)cccn12`
Reply: > 52.3 µM

Task item: Please look at this compound and report its TGI: CC(=O)OC1CC[C@@]2(C)C(CC[C@]3(C)C2CC=C2[C@@H]4C(C)[C@H](C)CCC4(C)CCC23C)[C@@]1(C)C(=O)O (stereo partly drawn)
Reply: 53.4 µM

Task item: Please look at this compound and report its TGI: CC1=C(C)C2(O)C(=C(C)C1=O)/C(=C(/O)c1ccccc1)c1nc3ccccc3n12 (stereo not drawn)
Reply: 58.1 µM

Task item: Please look at this compound and report its TGI: COc1ccc(C(CC(=O)c2ccccc2)C(C(=O)c2ccccc2)C(c2ccc(OC)cc2)C2C(=O)NC(=S)NC2=O)cc1 (stereo not drawn)
Reply: > 100 µM
